# test_target: CMP-N-acetylneuraminate-beta-galactosamide-alpha-2,3-sialyltransferase 1 (Homo sapiens)
# Sequence (Q11201 whole entry): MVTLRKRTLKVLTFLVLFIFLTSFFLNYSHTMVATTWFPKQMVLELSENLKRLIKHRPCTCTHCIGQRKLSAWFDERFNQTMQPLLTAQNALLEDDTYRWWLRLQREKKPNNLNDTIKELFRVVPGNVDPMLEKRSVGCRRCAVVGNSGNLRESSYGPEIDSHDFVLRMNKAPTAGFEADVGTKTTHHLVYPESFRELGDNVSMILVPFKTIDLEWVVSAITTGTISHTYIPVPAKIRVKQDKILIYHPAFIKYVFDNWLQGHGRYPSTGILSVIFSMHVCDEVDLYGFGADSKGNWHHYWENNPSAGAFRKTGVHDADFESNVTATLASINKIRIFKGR
# assay_details: Inhibition of ST3Gal 1 (unknown origin)
readout_type: Ki

Entry `C[C@H](CCCn1cc(CCCC(=O)O)nn1)[C@H]1CC[C@H]2[C@@H]3CC[C@@H]4C[C@H](O)CC[C@]4(C)[C@H]3CC[C@]12C` : reported Ki = ?
2200 nM

====

# test_target: CMP-N-acetylneuraminate-beta-galactosamide-alpha-2,3-sialyltransferase 1 (Homo sapiens)
IC50 values, listed per item
Report the figure in µM without appending any unit label.

molecule_smiles | test_target | IC50 (µM)
C[C@H](CCCn1cc(CCCC(=O)O)nn1)[C@H]1CC[C@H]2[C@@H]3CC[C@@H]4C[C@H](O)CC[C@]4(C)[C@H]3CC[C@]12C | CMP-N-acetylneuraminate-beta-galactosamide-alpha-2,3-sialyltransferase 1 (Homo sapiens) | 5

Any idea what IC50 came out for `C[C@@H]1CC[C@H]2C(C)(C)[C@H](O)[C@H](O)C[C@]2(C)[C@@]12Cc1c(O)cc3c(c1O2)COC3=O` on CMP-N-acetylneuraminate-beta-galactosamide-alpha-2,3-sialyltransferase 1 (Homo sapiens)?
168

Any idea what IC50 came out for `C[C@@H]1CC[C@H]2C(C)(C)[C@H](O)CC[C@]2(C)[C@@]12Cc1c(O)cc(C=O)c(C=O)c1O2` on CMP-N-acetylneuraminate-beta-galactosamide-alpha-2,3-sialyltransferase 1 (Homo sapiens)?
6.7

====

# test_target: 4-galactosyl-N-acetylglucosaminide 3-alpha-L-fucosyltransferase FUT5 (Homo sapiens, UniProt Q11128)
# Sequence (Q11128 whole entry): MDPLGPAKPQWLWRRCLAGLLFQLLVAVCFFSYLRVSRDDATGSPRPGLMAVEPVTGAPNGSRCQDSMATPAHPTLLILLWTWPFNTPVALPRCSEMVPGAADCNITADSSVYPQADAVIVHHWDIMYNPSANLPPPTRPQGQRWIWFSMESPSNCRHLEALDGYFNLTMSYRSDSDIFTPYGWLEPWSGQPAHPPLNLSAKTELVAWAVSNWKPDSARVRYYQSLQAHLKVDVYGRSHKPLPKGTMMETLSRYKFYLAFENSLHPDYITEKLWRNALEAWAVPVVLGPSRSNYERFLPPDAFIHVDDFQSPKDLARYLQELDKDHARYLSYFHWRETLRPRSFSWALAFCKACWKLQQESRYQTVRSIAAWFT
# assay_details: Uncompetitive inhibition of FucT-5 (unknown origin) using GDP-fucose as donor substrate
readout_type: Ki (µM)
Report the figure in µM without appending any unit label.

Entry `C[C@@H]1CC[C@H]2C(C)(C)[C@H](O)CC[C@]2(C)[C@@]12Cc1c(O)cc(C=O)c(C=O)c1O2` : reported Ki = ?
10.7

====

# test_target: Phospho-N-acetylmuramoyl-pentapeptide-transferase/UDP-N-acetylglucosamine--N-acetylmuramyl-(pentapeptide) pyrophosphoryl-undecaprenol N-acetylglucosamine transf (Escherichia coli K-12, UniProt P0A6W3+P17443)
# assay_details: Inhibition of Escherichia coli MraY/MurG
# Type: protein assay
IC50 values, listed per item
Report the figure in µM without appending any unit label.

Worked cases, answers included:
molecule_smiles | IC50, µM
COC1=C(O)c2c(O)cc(C)c3c(O)cc(O)c(c23)C1=O | 54
CN[C@H](CC(C)C)C(=O)N[C@H]1C(=O)N[C@@H](CC(N)=O)C(=O)N[C@H]2C(=O)N[C@H]3C(=O)N[C@H](C(=O)N[C@H](C(=O)O)c4cc(O)cc(O)c4-c4cc3ccc4O)[C@H](O)c3ccc(c(Cl)c3)Oc3cc2cc(c3O[C@@H]2O[C@H](CO)[C@@H](O)[C@H](O)[C@H]2O[C@H]2C[C@](C)(N)[C@H](O)[C@H](C)O2)Oc2ccc(cc2Cl)[C@H]1O | 9
CCOC(=O)c1ccccc1-c1c2cc(Br)c(=O)c(Br)c-2oc2c(Br)c(O)c(Br)cc12 | 18.4

Could you now look at the following compound, please?
Entry `O=C1OC2(c3cc(I)c(O)cc3Oc3cc(O)c(I)cc32)c2ccccc21` : reported IC50 = ?
166

====

# test_target: Ceramide glucosyltransferase (Homo sapiens)
# Sequence (whole entry): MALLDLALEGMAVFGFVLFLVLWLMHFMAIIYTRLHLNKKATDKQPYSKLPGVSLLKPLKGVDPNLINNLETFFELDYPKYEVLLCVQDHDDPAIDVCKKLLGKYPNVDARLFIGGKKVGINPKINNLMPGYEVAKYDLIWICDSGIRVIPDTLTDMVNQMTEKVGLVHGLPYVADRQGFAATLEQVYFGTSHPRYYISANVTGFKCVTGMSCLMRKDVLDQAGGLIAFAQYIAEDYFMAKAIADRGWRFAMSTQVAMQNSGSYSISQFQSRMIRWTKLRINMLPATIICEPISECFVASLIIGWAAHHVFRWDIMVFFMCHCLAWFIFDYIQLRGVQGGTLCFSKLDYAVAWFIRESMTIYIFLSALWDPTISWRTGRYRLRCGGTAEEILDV
# assay_details: Inhibition of glucosylceramide synthase (unknown origin) at 5 uM
inhibition values, listed per item
Just so you know, I need the unit written after the number.

molecule_smiles | readout_type | meas_value
CCCCCCCCCCCCC/C=C/[C@@H](O)[C@@H](CN1CCCC1)NC(=O)CCCCCCCCCCCCCCC | inhibition | 87%
CCCCCCCCCC(=O)N[C@H](CN1CCOCC1)[C@H](O)c1ccccc1 | inhibition | 16%

Any idea what inhibition came out for `CCCCCCCCCCCCC/C=C/[C@H](O)[C@@H](CN1CCOCC1)NC(=O)CCCCCCCCCCCCCCC` on Ceramide glucosyltransferase (Homo sapiens)?
5%

Any idea what inhibition came out for `CCCCCCCCCCCCC/C=C/[C@H](O)[C@H](CN1CCOCC1)NC(=O)CCCCCCCCCCCCCCC` on Ceramide glucosyltransferase (Homo sapiens)?
5%

Any idea what inhibition came out for `CCCCCCCCCCCCC/C=C/[C@@H](O)[C@H](CN1CCOCC1)NC(=O)CCCCCCCCCCCCCCC` on Ceramide glucosyltransferase (Homo sapiens)?
5%
